target: Dopamine receptor (Rattus norvegicus) (UniProt P25115+P19020+P30729+P18901+P61169); assay: Evaluation of Dopamine receptor activation in striatum of reserpinized rat; type: functional, tissue-based
property name: ED50 (µmol/kg)

{"compound": "Oc1cccc(C2CCCN(Cc3ccccc3)C2)c1 (configuration not stated)", "tested system": "Dopamine receptor (Rattus norvegicus) (UniProt P25115+P19020+P30729+P18901+P61169)", "modifier sign": "=", "data value": 24}
{"compound": "Oc1cccc(C2CCCN(C3CCCCC3)C2)c1 (configuration not stated)", "tested system": "Dopamine receptor (Rattus norvegicus) (UniProt P25115+P19020+P30729+P18901+P61169)", "modifier sign": "=", "data value": 45}
{"compound": "CCCCCN1CCCC(c2cccc(O)c2)C1 (configuration not stated)", "tested system": "Dopamine receptor (Rattus norvegicus) (UniProt P25115+P19020+P30729+P18901+P61169)", "modifier sign": "=", "data value": 0.9}
{"compound": "CC(C)(C)CN1CCCC(c2cccc(O)c2)C1 (configuration not stated)", "tested system": "Dopamine receptor (Rattus norvegicus) (UniProt P25115+P19020+P30729+P18901+P61169)", "modifier sign": ">", "data value": 2.8}
{"compound": "CCCNCCc1cccc(O)c1", "tested system": "Dopamine receptor (Rattus norvegicus) (UniProt P25115+P19020+P30729+P18901+P61169)", "modifier sign": "=", "data value": 0.8}
{"compound": "CCCN1CCC(c2cccc(O)c2)C1 (configuration not stated)", "tested system": "Dopamine receptor (Rattus norvegicus) (UniProt P25115+P19020+P30729+P18901+P61169)", "modifier sign": "=", "data value": 45}
{"compound": "CN1CCCC(c2cccc(O)c2)C1 (configuration not stated)", "tested system": "Dopamine receptor (Rattus norvegicus) (UniProt P25115+P19020+P30729+P18901+P61169)", "modifier sign": "=", "data value": 2.5}
